system: NCI/ADR-RES ovarian; experiment: NCI-60 one-dose screen, 48 h (100 = growth as untreated, 0 = no growth, -100 = all killed); details: 10 µM unless noted
The panel holds about 83,000 compounds, 20% with a hit somewhere; the sample as a whole holds those more often.
Quick list: growth per entry.
Report only the number, with the unit % understood.

Below: 5 compounds and their reported growth.
> print(dat)
                                   compound  measurement.kind  quantitative.readout
1                    Cc1nnc2nc(N)[nH]n2c1=O            growth                  99.7
2  C=C1C(=O)O[C@H]2[C@H]1CC/C(Cn1cc(-c3ccc(OC)cc3)nn1)=C\CC[C@@]1(C)O[C@@H]21            growth                  24.7
3  CCC(c1ccc(OC)cc1)C(CC)c1ccc(O)c(CN2CCCCC2)c1 (stereo not drawn)            growth                  60.9
4  CN1CCN(c2ccc3nc(-c4[nH]ncc4Nc4ncnc5[nH]ccc45)[nH]c3c2)CC1            growth                  80.4
5  CCc1ccc(-c2ccc(Nc3ccccc3)nn2)cc1S(N)(=O)=O            growth                  85.6

Query: // lookup growth for COc1cc(NC(C)CN(CC(C)C)C(C)C)c2ncccc2c1 (stereo not drawn)
Result: 93.3

Query: growth; subject: COc1ccc(/C=C2\N=C(c3ccccc3)N(c3cc(OC)c(OC)cc3C(=O)N3N=C(C)CC3=O)C2=O)cc1
Result: 78.6

Query: Which growth is listed for CCCCCCCC(=O)SCC/C=C/[C@@H]1CC(=O)NCc2cccc(n2)CN(Cc2ccc(Cl)cc2)CC(=O)N[C@@H](C(C)C)C(=O)O1 ?
Result: 13

Attribution: PubChem BioAssay (NCI)
